# system.under.test: NHE3 (Homo sapiens, UniProt P48764)
# Construct: expressed in transfected cells
# Sequence (P48764 26-834): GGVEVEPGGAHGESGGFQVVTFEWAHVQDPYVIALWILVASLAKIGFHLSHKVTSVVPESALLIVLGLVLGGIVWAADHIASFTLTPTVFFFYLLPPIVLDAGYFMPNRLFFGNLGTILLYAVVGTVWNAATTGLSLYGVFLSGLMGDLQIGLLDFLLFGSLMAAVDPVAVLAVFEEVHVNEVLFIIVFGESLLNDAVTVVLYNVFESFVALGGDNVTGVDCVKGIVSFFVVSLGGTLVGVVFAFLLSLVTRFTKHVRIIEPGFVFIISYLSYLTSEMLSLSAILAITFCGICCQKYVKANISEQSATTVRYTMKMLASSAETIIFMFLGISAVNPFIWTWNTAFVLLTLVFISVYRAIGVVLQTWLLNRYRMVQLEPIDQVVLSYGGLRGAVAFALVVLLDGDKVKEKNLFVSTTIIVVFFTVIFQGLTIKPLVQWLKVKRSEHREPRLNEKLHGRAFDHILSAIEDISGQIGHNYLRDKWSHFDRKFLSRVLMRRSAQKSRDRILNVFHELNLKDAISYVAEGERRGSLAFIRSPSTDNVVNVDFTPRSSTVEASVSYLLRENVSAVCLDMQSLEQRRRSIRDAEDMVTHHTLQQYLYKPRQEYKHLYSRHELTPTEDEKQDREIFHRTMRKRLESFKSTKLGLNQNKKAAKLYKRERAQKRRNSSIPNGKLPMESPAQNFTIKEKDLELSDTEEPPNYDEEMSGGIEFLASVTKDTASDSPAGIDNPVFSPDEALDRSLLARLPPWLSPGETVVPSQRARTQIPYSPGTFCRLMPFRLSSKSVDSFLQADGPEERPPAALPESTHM
# Sequence (Q99653 2-195 partner limits assumed): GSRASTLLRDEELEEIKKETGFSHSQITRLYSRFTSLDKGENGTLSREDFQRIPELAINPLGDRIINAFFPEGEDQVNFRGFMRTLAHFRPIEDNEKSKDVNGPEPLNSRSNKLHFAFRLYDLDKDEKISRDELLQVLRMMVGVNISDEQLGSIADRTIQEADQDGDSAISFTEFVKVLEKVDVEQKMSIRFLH
# experiment: Cell-based assay of NHE-3 activity (persistent inhibition), human
# cond: human Persistence, 60 min incubation then washout

[
  {
    "molecule": "Cc1cc(S(=O)(=O)N[C@@H]2CCN(CCOCCNC(=O)NCCCCNC(=O)NCCOCCN3CC[C@@H](NS(=O)(=O)c4ccc(O[C@H]5c6cc(Cl)cc(C)c6C[C@@H]5N5CCC[C@@H](N(C)C)C5)c(C)c4)C3)C2)ccc1O[C@H]1c2cc(Cl)cc(C)c2C[C@@H]1N1CCC[C@@H](N(C)C)C1 [Example 113, (trifluoroacetate)]",
    "% inhibition": "C (>70%)"
  },
  {
    "molecule": "Cc1cc(S(=O)(=O)N[C@H]2CCN(CCOCCNC(=O)NCCCCNC(=O)NCCOCCN3CC[C@H](NS(=O)(=O)c4ccc(O[C@H]5c6cc(Cl)cc(Cl)c6C[C@@H]5N(C)C)c(C)c4)C3=O)C2=O)ccc1O[C@H]1c2cc(Cl)cc(Cl)c2C[C@@H]1N(C)C",
    "% inhibition": "C (>70%)"
  }
]

* * *

# system.under.test: NHE3 (Homo sapiens)
# Construct: expressed in transfected cells
# experiment: Cell-based assay of NHE-3 activity (persistent inhibition), human
# cond: human Persistence, 60 min incubation then washout
value.type: pIC50

[
  {
    "compound": "Cc1cc(O[C@H]2c3cc(Cl)cc(Cl)c3C[C@@H]2N2CCC[C@@H](N)C2)ccc1S(=O)(=O)NCCOCCOCCNC(=O)NCCCCNC(=O)NCCOCCOCCNS(=O)(=O)c1ccc(O[C@H]2c3cc(Cl)cc(Cl)c3C[C@@H]2N2CCC[C@@H](N)C2)cc1C [Example 102]",
    "value.type": "pIC50",
    "result": "C (NHE3 pIC50 > 7)"
  },
  {
    "compound": "Cc1cc(Cl)cc2c1C[C@H](N1CCNCC1)[C@H]2Oc1ccc(S(=O)(=O)NCCOCCOCCNC(=O)NCCCCNC(=O)NCCOCCOCCNS(=O)(=O)c2ccc(O[C@H]3c4cc(Cl)cc(C)c4C[C@@H]3N3CCNCC3)c(F)c2)cc1F [Example 36]",
    "value.type": "pIC50",
    "result": "C (NHE3 pIC50 > 7)"
  },
  {
    "compound": "CN(C)[C@H]1Cc2c(Cl)cc(Cl)cc2[C@@H]1Oc1ccc(S(=O)(=O)NCCOCCOCCNC(=O)NCCCCNC(=O)NCCOCCOCCNS(=O)(=O)c2ccc(O[C@H]3c4cc(Cl)cc(Cl)c4C[C@@H]3N(C)C)c(F)c2)cc1F [Example 23]",
    "value.type": "pIC50",
    "result": "C (NHE3 pIC50 > 7)"
  }
]

* * *

# system.under.test: NHE3 (Homo sapiens, UniProt P48764)
# Construct: expressed in transfected cells
# experiment: Cell-based assay of NHE-3 activity (pre-incubation inhibition), human
# cond: human Preincubation, 0-30 μM test compound
Counter-ions that a name gives are not always drawn.

[
  {
    "compound": "N#Cc1cc(Cl)cc2c1C[C@H](N1CCNCC1)[C@H]2Oc1ccc(S(=O)(=O)N[C@H]2CCN(CCOCCNC(=O)NCCCCNC(=O)NCCOCCN3CC[C@H](NS(=O)(=O)c4ccc(O[C@H]5c6cc(Cl)cc(C#N)c6C[C@@H]5N5CCNCC5)cc4)C3)C2)cc1 [Example 107, (trifluoroacetate)]",
    "pIC50": "C (NHE3 pIC50 > 7)"
  },
  {
    "compound": "Cc1cc(S(=O)(=O)NCCOCCOCCNC(=O)NCCCCNC(=O)NCCOCCOCCNS(=O)(=O)c2ccc(O[C@H]3c4cc(Cl)cc(OC(F)(F)F)c4C[C@@H]3N(C)C)c(C)c2)ccc1O[C@H]1c2cc(Cl)cc(OC(F)(F)F)c2C[C@@H]1N(C)C",
    "pIC50": "A (NHE3 pIC50 < 6)"
  },
  {
    "compound": "Cc1cc(S(=O)(=O)NCCOCCOCCNC(=O)NCCCCNC(=O)NCCOCCOCCNS(=O)(=O)c2ccc(O[C@H]3c4cc(Cl)cc(Cl)c4C[C@@H]3N3CCN(C(=O)N(C)C)CC3)c(C)c2)ccc1O[C@H]1c2cc(Cl)cc(Cl)c2C[C@@H]1N1CCN(C(=O)N(C)C)CC1",
    "pIC50": "A (NHE3 pIC50 < 6)"
  },
  {
    "compound": "Cc1cc(S(=O)(=O)NCCOCCOCCNC(=O)NCCCCNC(=O)NCCOCCOCCNS(=O)(=O)c2ccc(O[C@H]3c4cc(Cl)cc(C#N)c4C[C@@H]3N3CCNCC3)c(C)c2)ccc1O[C@H]1c2cc(Cl)cc(C#N)c2C[C@@H]1N1CCNCC1",
    "pIC50": "C (NHE3 pIC50 > 7)"
  },
  {
    "compound": "CC(C)(COCCOCCNC(=O)NCCCCNC(=O)NCCOCCOCC(C)(C)NS(=O)(=O)c1ccc(O[C@H]2c3cc(Cl)cc(Cl)c3C[C@@H]2N2CCC[C@@H](N)C2)cc1)NS(=O)(=O)c1ccc(O[C@H]2c3cc(Cl)cc(Cl)c3C[C@@H]2N2CCC[C@@H](N)C2)cc1 [Example 100, hydrochloride]",
    "pIC50": "C (NHE3 pIC50 > 7)"
  },
  {
    "compound": "O=C(NCCCCNC(=O)NCCOCCOCCNS(=O)(=O)c1ccc(O[C@H]2c3cc(Cl)cc(Cl)c3C[C@@H]2N2C3CCCC2CCC3)cc1)NCCOCCOCCNS(=O)(=O)c1ccc(O[C@H]2c3cc(Cl)cc(Cl)c3C[C@@H]2N2C3CCCC2CCC3)cc1",
    "pIC50": "A (NHE3 pIC50 < 6)"
  },
  {
    "compound": "Cc1cc(S(=O)(=O)N[C@H]2CCN(CCOCCNC(=O)NCCCCNC(=O)NCCOCCN3CC[C@H](NS(=O)(=O)c4ccc(O[C@H]5c6cc(Cl)cc(Cl)c6C[C@@H]5N(C)C)c(C)c4)C3)C2)ccc1O[C@H]1c2cc(Cl)cc(Cl)c2C[C@@H]1N(C)C",
    "pIC50": "C (NHE3 pIC50 > 7)"
  },
  {
    "compound": "Cc1cc(S(=O)(=O)N2CC[C@@H](COc3ccnc(CNC(=O)NCCCCNC(=O)NCc4cc(OC[C@@H]5CCN(S(=O)(=O)c6ccc(O[C@H]7c8cc(Cl)cc(C#N)c8C[C@@H]7N(C)C)c(C)c6)C5)ccn4)c3)C2)ccc1O[C@H]1c2cc(Cl)cc(C#N)c2C[C@@H]1N(C)C",
    "pIC50": "C (NHE3 pIC50 > 7)"
  },
  {
    "compound": "CC(C)[C@H](COCCOCCNC(=O)NCCCCNC(=O)NCCOCCOC[C@H](NS(=O)(=O)c1ccc(O[C@H]2c3cc(Cl)cc(Cl)c3C[C@@H]2N2CCC[C@@H](N)C2)cc1)C(C)C)NS(=O)(=O)c1ccc(O[C@H]2c3cc(Cl)cc(Cl)c3C[C@@H]2N2CCC[C@@H](N)C2)cc1",
    "pIC50": "C (NHE3 pIC50 > 7)"
  },
  {
    "compound": "N#Cc1cc(Cl)cc2c1C[C@H](N1CCNCC1)[C@H]2Oc1ccc(S(N)(=O)=O)cc1",
    "pIC50": "C (NHE3 pIC50 > 7)"
  },
  {
    "compound": "CN(C)[C@H]1Cc2c(C#N)cc(Cl)cc2[C@@H]1Oc1ccc(S(=O)(=O)NCCOCCOCCNC(=O)NCCCCNC(=O)NCCOCCOCCNS(=O)(=O)c2ccc(O[C@H]3c4cc(Cl)cc(C#N)c4C[C@@H]3N(C)C)c(F)c2)cc1F",
    "pIC50": "C (NHE3 pIC50 > 7)"
  },
  {
    "compound": "CN1CCCN([C@H]2Cc3c(C#N)cc(Cl)cc3[C@@H]2Oc2ccc(S(=O)(=O)N[C@H]3CCN(CCOCCNC(=O)NCCCCNC(=O)NCCOCCN4CC[C@H](NS(=O)(=O)c5ccc(O[C@H]6c7cc(Cl)cc(C#N)c7C[C@@H]6N6CCCN(C)CC6)cc5)C4)C3)cc2)CC1",
    "pIC50": "A (NHE3 pIC50 < 6)"
  },
  {
    "compound": "N#Cc1cc(Cl)cc2c1C[C@H](N1C[C@@H]3C[C@H]1CN3)[C@H]2Oc1ccc(S(=O)(=O)N[C@@H]2CCN(CCOCCNC(=O)NCCCCNC(=O)NCCOCCN3CC[C@@H](NS(=O)(=O)c4ccc(O[C@H]5c6cc(Cl)cc(C#N)c6C[C@@H]5N5C[C@@H]6C[C@H]5CN6)cc4)C3)C2)cc1",
    "pIC50": "C (NHE3 pIC50 > 7)"
  },
  {
    "compound": "Cc1cc(S(=O)(=O)NCCOCCOCCNC(=O)NCCCCNC(=O)NCCOCCOCCNS(=O)(=O)c2ccc(O[C@H]3c4cc(Cl)cc(Cl)c4C[C@@H]3N(C)C)c(C)c2)ccc1O[C@H]1c2cc(Cl)cc(Cl)c2C[C@@H]1N(C)C [Example 22, dihydrochloride]",
    "pIC50": "C (NHE3 pIC50 > 7)"
  },
  {
    "compound": "N[C@@H]1CCCN([C@H]2Cc3c(Cl)cc(Cl)cc3[C@@H]2Oc2ccc(S(=O)(=O)NCCOCCOCCNC(=O)NCCCCNC(=O)NCCOCCOCCNS(=O)(=O)c3ccc(O[C@H]4c5cc(Cl)cc(Cl)c5C[C@@H]4N4CCC[C@@H](N)C4)cc3F)c(F)c2)C1",
    "pIC50": "C (NHE3 pIC50 > 7)"
  }
]
